# Test system: creatine kinase
# Method notes: Creatine kinase (CK) test procedure in Ad5-wt-ERα infected HAECT-1 cells
# Assay type: cell-based, human
# Protocol conditions: Ad5-wt-ERα infected HAECT-1 cells
The following compounds are listed with their measured Creatin Kinase Efficacy (%) values.
Measured parameter: Creatin Kinase Efficacy (%)

| Compound | Measured parameter | U | Recorded number |
| --- | --- | --- | --- |
| C[C@H]1c2ccccc2-c2ccc(Cl)cc2N1S(=O)(=O)c1ccc(O)cc1O | Creatin Kinase Efficacy (%) | % | 22 |
| CC1c2ccc(F)cc2-c2ccc(F)cc2N1S(=O)(=O)c1ccc(O)cc1 (stereo not shown) | Creatin Kinase Efficacy (%) | % | 23 |
| C[C@H]1c2ccccc2-c2ccc(Cl)cc2N1S(=O)(=O)c1cccc(O)c1 | Creatin Kinase Efficacy (%) | % | 10 |
| C[C@@H]1c2ccccc2-c2ccc(Cl)cc2N1S(=O)(=O)c1ccc(O)cc1 | Creatin Kinase Efficacy (%) | % | 14 |
